Reported kd var/kd wt by item:
# Target Desc: T1, human TGFβ1 (human, UniProt P01137 279-390)
# T1 construct: also called TGFβ1 homodimer
# T1 sequence (P01137 279-390 limits assumed): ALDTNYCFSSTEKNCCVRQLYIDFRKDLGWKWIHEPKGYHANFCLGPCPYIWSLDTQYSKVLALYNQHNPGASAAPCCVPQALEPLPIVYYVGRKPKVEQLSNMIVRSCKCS
# Experiment: Biacore off-rate vs wt GC1008, 50 nM

{"columns": ["Binder", "kd var/kd wt"],
 "data": [
  ["S30Q (antibody, V domains shown, GC1008 IgG4 variant) VH: QVQLVQSGAEVKKPGSSVKVSCKASGYTFQSNVISWVRQAPGQGLEWMGGVIPIVDIANYAQRFKGRVTITADESTSTTYMELSSLRSEDTAVYYCASTLGLVLDAMDYWGQGTLVTVSS VL: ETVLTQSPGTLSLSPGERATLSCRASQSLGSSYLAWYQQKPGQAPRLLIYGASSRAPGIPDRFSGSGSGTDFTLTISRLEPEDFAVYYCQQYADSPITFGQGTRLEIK", 1.2],
  ["S30H (antibody, V domains shown, GC1008 IgG4 variant) VH: QVQLVQSGAEVKKPGSSVKVSCKASGYTFHSNVISWVRQAPGQGLEWMGGVIPIVDIANYAQRFKGRVTITADESTSTTYMELSSLRSEDTAVYYCASTLGLVLDAMDYWGQGTLVTVSS VL: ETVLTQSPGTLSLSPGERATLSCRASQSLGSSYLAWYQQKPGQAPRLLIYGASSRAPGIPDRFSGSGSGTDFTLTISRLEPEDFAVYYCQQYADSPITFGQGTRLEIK", 0.9],
  ["E74S (antibody, V domains shown, GC1008 IgG4 variant) VH: QVQLVQSGAEVKKPGSSVKVSCKASGYTFSSNVISWVRQAPGQGLEWMGGVIPIVDIANYAQRFKGRVTITADSSTSTTYMELSSLRSEDTAVYYCASTLGLVLDAMDYWGQGTLVTVSS VL: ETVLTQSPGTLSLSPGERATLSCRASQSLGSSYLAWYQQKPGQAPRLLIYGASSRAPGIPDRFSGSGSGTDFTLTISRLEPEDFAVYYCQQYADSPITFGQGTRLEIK", 0.8],
  ["I54W (antibody, V domains shown, GC1008 IgG4 variant) VH: QVQLVQSGAEVKKPGSSVKVSCKASGYTFSSNVISWVRQAPGQGLEWMGGVIPWVDIANYAQRFKGRVTITADESTSTTYMELSSLRSEDTAVYYCASTLGLVLDAMDYWGQGTLVTVSS VL: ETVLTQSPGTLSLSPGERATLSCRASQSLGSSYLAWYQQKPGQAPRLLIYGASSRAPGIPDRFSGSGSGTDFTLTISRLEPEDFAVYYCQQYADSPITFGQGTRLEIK", 2],
  ["S31K (antibody, V domains shown, GC1008 IgG4 variant) VH: QVQLVQSGAEVKKPGSSVKVSCKASGYTFSKNVISWVRQAPGQGLEWMGGVIPIVDIANYAQRFKGRVTITADESTSTTYMELSSLRSEDTAVYYCASTLGLVLDAMDYWGQGTLVTVSS VL: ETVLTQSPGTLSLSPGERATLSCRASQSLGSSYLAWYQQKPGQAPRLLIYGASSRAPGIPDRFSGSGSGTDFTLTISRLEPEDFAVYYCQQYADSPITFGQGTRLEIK", 1.8]
]}
